Experiment: clinical
Details: human, in vivo, 2.4 mg
ASSAY_READOUT: Cmax

response.value for CN(C)CCC=C1c2ccccc2C=Cc2ccccc21 (field: Cmax) = ~2.74 ng/mL

----------
Assay: in vivo
Details: beagle, dog, iv, AUCt
Experimental: Each dog was sampled at pre-dose before and after Propofol (when possible) and at 5, 10 and 20 minutes post-dose.
Where a name gives a salt, the structure may show the parent alone.
ASSAY_READOUT: AUC(0-t) (ng·h/mL)
I only need the number, in ng·h/mL, no unit after it.

Measured AUC(0-t), CN(C)CCC=C1c2ccccc2C=Cc2ccccc21 [cyclobenzaprine HCl] : 7.67

----------
Biological target: 5-HT1A receptor (Homo sapiens)
Construct: expressed in transfected cells
Sequence (P08908 whole entry): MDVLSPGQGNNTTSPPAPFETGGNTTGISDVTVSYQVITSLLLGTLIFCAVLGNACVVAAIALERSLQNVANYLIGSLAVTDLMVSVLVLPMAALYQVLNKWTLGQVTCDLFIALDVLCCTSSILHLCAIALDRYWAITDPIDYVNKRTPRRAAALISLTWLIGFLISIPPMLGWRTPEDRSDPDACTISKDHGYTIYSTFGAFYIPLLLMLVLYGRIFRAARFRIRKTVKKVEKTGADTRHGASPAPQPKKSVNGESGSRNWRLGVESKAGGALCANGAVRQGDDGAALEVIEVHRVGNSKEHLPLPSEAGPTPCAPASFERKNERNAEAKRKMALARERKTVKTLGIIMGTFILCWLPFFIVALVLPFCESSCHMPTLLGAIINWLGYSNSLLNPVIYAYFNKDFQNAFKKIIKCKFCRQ
Assay: G-protein-dependent signal transduction (functional agonism)
Assay type: cell-based
Conditions: read-out: IC50 (nM) (Antagonist)
ASSAY_READOUT: IC50 (nM)
Quick note: give the figure in nM, leave out the unit.

Lab note: measured IC50 of CNCCC=C1c2ccccc2C=Cc2ccccc21 was 5300
